Cited source: PubChem BioAssay AID1745844

- System: rodent lifetime carcinogenesis bioassay, tumor incidence TD50
- ASSAY_NOTES: carcinogenic potency in animals, long-term in vivo studies, CPDB compilation (AID 1745844)
- CONDITIONS_USED: mouse; strain B6C3F1; females; in feed; site: all sites + liver; lesion: lymphoma + hepatocellular carcinoma; dosed 79 weeks; study length 94 weeks

[
  {
    "GIVEN_SMILES": "Nc1ccc2c(c1)C(=O)c1ccccc1C2=O",
    "MEASUREMENT_UNITS": "mg/kg/day",
    "TD50": 1490
  }
]

* * *

- Tested on: rodent lifetime carcinogenesis bioassay, tumor incidence TD50
- ASSAY_NOTES: carcinogenic potency in animals, long-term in vivo studies, CPDB compilation (AID 1745844)
- CONDITIONS_USED: rat; strain Fischer 344; males; in feed; site: any site (literature study); lesion: several types; types named in the paper; dosed 103 weeks; study length 111 weeks
The source made the active and inactive calls. How the calls were made is not given here.

[
  {
    "GIVEN_SMILES": "Nc1cc(Cl)c(N)c(Cl)c1",
    "TEST_TARGET": "rodent lifetime carcinogenesis bioassay, tumor incidence TD50",
    "TD50": "914 mg/kg/day (inactive)"
  }
]

* * *

- Tested on: rodent lifetime carcinogenesis bioassay, tumor incidence TD50
- ASSAY_NOTES: carcinogenic potency in animals, long-term in vivo studies, CPDB compilation (AID 1745844)
- CONDITIONS_USED: mouse; strain B6C3F1; females; in feed; site: liver; lesion: hepatocellular adenoma + hepatocellular carcinoma + neoplastic nodule; dosed 94 weeks; study length 104 weeks
METRIC: TD50 (mg/kg/day)

[
  {
    "GIVEN_SMILES": "CCNC(=O)Nc1ncc([N+](=O)[O-])s1",
    "DATA_VALUE": 2720
  }
]

* * *

- Test system: rodent lifetime carcinogenesis bioassay, tumor incidence TD50
- ASSAY_NOTES: carcinogenic potency in animals, long-term in vivo studies, CPDB compilation (AID 1745844)
- CONDITIONS_USED: rat; strain Donryu; females; in drinking water; site: any site (literature study); lesion: several types; types named in the paper; dosed 75 weeks; study length 75 weeks

[
  {
    "GIVEN_SMILES": "CCCCNC(=O)N(CCCC)N=O",
    "TD50 [mg/kg/day]": 2.67
  }
]

* * *

- Tested on: rodent lifetime carcinogenesis bioassay, tumor incidence TD50
- ASSAY_NOTES: carcinogenic potency in animals, long-term in vivo studies, CPDB compilation (AID 1745844)
- CONDITIONS_USED: mouse; strain ICR; females; in feed; site: liver; lesion: hemangioma; dosed 80 weeks; study length 80 weeks
Activity calls are given as the source filed them. How the calls were made is not given here.

[
  {
    "GIVEN_SMILES": "[CH3][Hg][Cl]",
    "TD50": "26.1 mg/kg/day (inactive)"
  }
]

* * *

- System: rodent lifetime carcinogenesis bioassay, tumor incidence TD50
- ASSAY_NOTES: carcinogenic potency in animals, long-term in vivo studies, CPDB compilation (AID 1745844)
- CONDITIONS_USED: rat; strain Sprague-Dawley; females; i.p.; site: all sites + brain + cerebrum + mammary gland; lesion: lymphoma + olfactory neuroblastoma + mucinous adenocarcinoma + adenocarcinoma, NOS + adenoma, NOS; dosed 26 weeks; study length 86 weeks

[
  {
    "GIVEN_SMILES": "CNNCc1ccc(C(=O)NC(C)C)cc1",
    "TD50 [mg/kg/day]": 0.337
  }
]
